# nonsense suppression per entry
B1: tRNA (parent)
chain: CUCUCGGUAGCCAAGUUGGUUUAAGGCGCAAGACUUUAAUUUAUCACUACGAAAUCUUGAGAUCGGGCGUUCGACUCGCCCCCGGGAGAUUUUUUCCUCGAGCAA

variants of: B1; test: nonsense suppression (GFP-seq) (ratio to wild type); higher = more function; SUP4oc tRNA, yeast GFP reporter sort-seq
Variants at the floor of the assay were thinned out.
value type: nonsense suppression

chain="CUCUCGGUAGCCAAGUCGGUUUAAGGCGCAAGACUUUAAUUUAUCACUACGAAAUCUUGAGACCGGGCGUUCGACUCGCCCCCGGGAGAUUUUUUCCUCGAGCAA [U17C U63C]" value_type="nonsense suppression" qual== readout_value=1.18
chain="CUCUCGGUAGCCAAGUUGGUUUAAGGCGCAAGACUUUAAUUUAUCACUACGAAAUCUUGAUAUCGGGCGUUCGAUUCGCCCCCGAGAGAUUUUUUCCUCGAGCAA [G61U C75U G85A]" value_type="nonsense suppression" qual== readout_value=1.04
chain="CUCUCGGUAGCCAAGUUGGUUUAAGGUGCAACACUUUAAUUUAUCACUACGAAAUCUUGAGAUCGGGCGUUCGACUCGCCCCCGGGAGAUUUUUUCCUCGAGCAA [C27U G32C]" value_type="nonsense suppression" qual=≤ readout_value=0.026
chain="CUUUCGGUAGCCAAGUUGGUGUAAGGCGCAAGACUUUAAUUUAUCACUACGAAAUCUUGAGAUCGGGCGUUCGACUCGCCCCCGCGAGAUUUUUUCCUCGAGCAA [C3U U21G G85C]" value_type="nonsense suppression" qual== readout_value=0.417
chain="CUCUCGGUGGCCAAGUUGGUUUAAGGCGCUAGACUUUAAUUUAUCACUACGAAAUCUAGAGAUCGGGCGUUCGACUCGCCCCCGGGAGAUUUUUUCCUCGAGCAA [A9G A30U U58A]" value_type="nonsense suppression" qual== readout_value=0.23
chain="CUCACGGUAGCCUAGUUGGUUUAAGGCGCAAGACUUUAAUUUAUCACUACGAAAUCUUGAGAUCGGGCGUUCGACUCGCCCCCGGGAGAUUUUUUCCUCGAGCAA [U4A A13U]" value_type="nonsense suppression" qual== readout_value=0.18
chain="CUCCCGGUAGCCAAGUUGGUUUAUGGCGCAAGACUUUAAUUUAUCACUACGAAAUCUUGAGAUCGGGCGUUCGACUCGCCCCCGGGAGAUUUUUUCCUCGAGCAA [U4C A24U]" value_type="nonsense suppression" qual== readout_value=0.84
chain="CUCUCGGUAGUCAAGUUGGUUUAAGGCGCAAGACUUUAAUUUAUCACUACGAAAUCUUGACAUCGGGCGUUCGACUCGCCCCCGGGUGAUUUUUUCCUCGAGCAA [C11U G61C A87U]" value_type="nonsense suppression" qual=≤ readout_value=0.026
chain="AUCUCGGUAGCCAAGUUGGUUUAAGGCGCAAGACUUUAAUUUAUCACUACGAAAUCUUGAGGUCGGGCGUUCGCCUCGCCCCCAGGAGAUUUUUUCCUCGAGCAA [C1A A62G A74C G84A]" value_type="nonsense suppression" qual=≤ readout_value=0.026
chain="CUCUCGGUAGCCAAGUUGGUUUAAGGCGCAAGACUUUAAUUUAUCACUACGAAAUCUUGAAAUGGGGCGUUCGACUCGCCCCCGGGAGAUUUUUUCCUCGAGCAA [G61A C64G]" value_type="nonsense suppression" qual== readout_value=0.0404
chain="CUCUCGGUAGCUAAGUUGGUUUAAGGCGCAAGACUUUAAUUUAUCACUACGAAAUCUUGAGAUCGGGCGUUCGACUCGCCCCCGGGAUAUUUUUUCCUCGAGCAA [C12U G88U]" value_type="nonsense suppression" qual== readout_value=0.0717
chain="CUCCCGGUAGCCAAAUUGGUUUAAGGCGCAAGACUUUAAUUUAUCACUACGAAAUCUUGAGAUCGGGCGUUCGACUCGCCCCCGGGAGAUUUUUUCCUCGAGCAA [U4C G15A]" value_type="nonsense suppression" qual== readout_value=0.746
chain="CUCUCGGUAGCCAAGUUGGCUUAAGGCGUAAGACUUUAAUUUAUCACUACGAAAUCUUGAGAUCGGGCGUUCGACUCGCCCCCGGGAGAUUUUUUCCUCGAGCAA [U20C C29U]" value_type="nonsense suppression" qual== readout_value=0.0276
chain="CUCUCGGUAGCCAAGUUGGUUUAAGGCGCAAGACUUUAAUUUAUCACUACGAAAUCUUGACAUCGGGCGUUCGACUCGCCCCCGGGAAAUUUUUUCCUCGAGCAA [G61C G88A]" value_type="nonsense suppression" qual== readout_value=0.0268
chain="GUCUCGGUAGCCAAGUUGGUUUAAAGCGCAAGACUUUAAUUUAUCACUACGAAAUCUUGAGAUCAGGCGUUCGACUCGCCCCGGGGAGAUUUUUUCCUCGAGCAA [C1G G25A G65A C83G]" value_type="nonsense suppression" qual=≤ readout_value=0.026
chain="CUUUCGGUACCCAAGUUGGUUUUAGGCGCAAGACUUUAAUUUAUCACUACGAAAUCUUGAGAUCGGGCGUUCGACUCGCCCCGGAGAGUUUUUUUCCUCGAGCAA [C3U G10C A23U C83G G85A A89U]" value_type="nonsense suppression" qual=≤ readout_value=0.026
chain="CUCUCGGUAGCCAAGUUGGUUUAAGGCGCAUGACUUUAAUUUAUCACUACGAAAUCUUGAGAUUGGGCGUUUGACUCGCCCCCGGGAGAUUUUUUCCUCGAGCAA [A31U C64U C72U]" value_type="nonsense suppression" qual=≤ readout_value=0.026
chain="CUCUCGGUAGCCAAGUUGGUGUAAGGCGCAAGACUUUAAUUUAUCACUACGAAAUCUUGAGAACGGGCGUUCGACUCGCCCCCGGGAGAUUUUUUCCUCGAGCAA [U21G U63A]" value_type="nonsense suppression" qual== readout_value=0.636
chain="CUCUCGGUAGCCAAGUUGGUUUAGGGCGCAAGACUUUAAUUUAUCACUACGAAACCUUGAGAUCGGGCGUUCGACUCGCCCCCGGGAGAUUUUUUCCUCGAGCAA [A24G U55C]" value_type="nonsense suppression" qual== readout_value=0.0553
chain="CUCUCGGUAGCCAAGUUGGUUUAACGCCCAAGACUUUAAUUUAUCACUACGAAAUCUUGAGUUCGGGCGUUCGACUCGCCCCCGGGAGAUUUUUUCCUCGAGCAA [G25C G28C A62U]" value_type="nonsense suppression" qual=≤ readout_value=0.026
chain="CUCUCGGUAGCCAAGUUGGUUUAAGGCGCAAGACUUUAAUUUAUCACUACGAAAUCUUGAGAACGGGCGUUCGACUCACCCCCGGGAGAUUUUUUCCUCGAGCAA [U63A G78A]" value_type="nonsense suppression" qual== readout_value=0.06
chain="CUCUCGGUAGCCAAGCUGGUUUAAGGCGUAAGACUUUAAUUUAUCACUACGAAAUCUUGAGAUCGGGCGUUCGACUCGCCCCCGGGAGAUUUUUUCCUCGAGCAA [U16C C29U]" value_type="nonsense suppression" qual== readout_value=1.11
chain="CUCUCGGUAGCCAAGUUGGUUUAAGCCGCAAGACUUUAAUUUAUCACUACGAAAUCAUGAGAUCGGGCGUUCAACUCGCCCCCGGGAGAUUUUUUCCUCGAGCAA [G26C U57A G73A]" value_type="nonsense suppression" qual=≤ readout_value=0.026
chain="CUCUCGGUAGCCAAGUUGGUUUACGGCGCAAGACUUUAAUUUAUCACUACGAAAUCUUGAGAUCGGGCGUUUGACUCGCCCCCGGGAGAUUUUUUCCUCGAGCAA [A24C C72U]" value_type="nonsense suppression" qual== readout_value=0.0288
chain="CUCUCGGUAGCCAAGUUGGUUUAAGGCGCAAGACUUUAAUUUAUCACUACGAAAUCCUGAGAUCGGGCGUUCGACUCGCCUCCUGGAGAUUUUUUCCUCGAGCAA [U57C C81U G84U]" value_type="nonsense suppression" qual=≤ readout_value=0.026
chain="CUCUCGGUAGUCAAGUUGGUUUAAGGCGCAAUACUUUAAUUUAUCACUACGAAAUCUUGAGAUCGGGCCUUCGACUCGCCCCCGCGAGAUUUUUUCCUCGAGCAA [C11U G32U G69C G85C]" value_type="nonsense suppression" qual=≤ readout_value=0.026
chain="CUUUCGGUAGCCAAGUUGGUUUAAGGCGCAAGACUUUAAUUUAUCACUACGAAAUCUUGAGAUCGCGCGUUCGACUCGCCCCCGGGAGAUUUUUUCCUCGAGCAA [C3U G66C]" value_type="nonsense suppression" qual== readout_value=0.0288
chain="CUCUCGGUUGCCAAGUUGGUUUAAGGCGCAAGACUUUAAUUUAUCACUACGAAAUCGUGAGAUCGGGCGUUCGACUAGCCCCCGAGAGAUUUUUUCCUCGAGCAA [A9U U57G C77A G85A]" value_type="nonsense suppression" qual=≤ readout_value=0.026
chain="CUCUCGGUUGCCUAGUUGGUUUAAGGCGCAAGACUUUAAUUUAUCACUACGAAAUCUUGAGAUCGGGCGUUCGACUCGCCCCCGGGAGAUUUUUUCCUCGAGCAA [A9U A13U]" value_type="nonsense suppression" qual== readout_value=0.819
chain="CUCUCGGAAGCCAAGUUGGUUUAAGGCGCAAGACUUUAAUUUAUCACUACGAAAUCCUGAGAUCGGGCGUUCGACUCGCCCCCGUGAGAUUUUUUCCUCGAGCAA [U8A U57C G85U]" value_type="nonsense suppression" qual=≤ readout_value=0.026
chain="CUCUCGGUAGCCAAGUUGGUUUAAGGCGCAAGACUUUAAUUUAUCACUACGAAAUCGUGAGAUCGGGCGUUCGACUCACCCCCGGGAGAUUUUUUCCUCGAGCAA [U57G G78A]" value_type="nonsense suppression" qual== readout_value=0.0374
chain="CUCUCGAUAGCCAAGUUGGUUUAAGGCGCAAGACGUUAAUUUAUCACUACGAAAUCUUAAGAUCGGGCGUUCGACUCGCCCCCGGGAGAUUUUUUCCUCGAGCAA [G7A U35G G59A]" value_type="nonsense suppression" qual=≤ readout_value=0.026
chain="CUCUCGGUCGCCAAGUUGGUUUAAGGCGCAAGACUUUAAUUUAUCACUACGAAAUCUUGAGAUCGGGUGUUCGACUCGCCCCCGGGAGAUUUUUUCCUCGAGCAA [A9C C68U]" value_type="nonsense suppression" qual== readout_value=0.765
chain="CUCUCGGUAGCCAAGUUGGUUUAAGGCGCAAGACUUUAAUUUAUCACUACGAAUUCUUGAGACCGGGCGUUCGACUCGCCCCCGGGAGAUUUUUUCCUCGAGCAA [A54U U63C]" value_type="nonsense suppression" qual== readout_value=0.798
chain="CUCUCGGUAGCCAAGUUGGUUUAAGGCGCGAGACUUUAAUUUAUCACUACGAACUCUUGAGAUCGGGCGUUCGACUCGCCCCCGGGAGAUUUUUUCCUCGAGCAA [A30G A54C]" value_type="nonsense suppression" qual== readout_value=0.077
chain="CCCUCGGUAGCCAAGUUGGUUUAAGGCGCAAGACUUUAAUUUAUCACUACGAAAUCUUGAGAUCGGGCGUUCGACUCGCCCCCGGGAGAUUUUUUCCUCGAGCAA [U2C]" value_type="nonsense suppression" qual== readout_value=0.185
chain="CUCUUGGCAGCCAAGUUGGUUUAAGGCGCAAGACUUUAAUUUAUCACUACGAAAUCUUGAGAUCAGGCGUUCGACUCGCCCCCGGGAGAUUUUUUCCUCGAGCAA [C5U U8C G65A]" value_type="nonsense suppression" qual=≤ readout_value=0.026
chain="GUCUCUGUAGCCAAGUUGGUUUAAGGCGCAAGACUUUAAUUUAUCACUACGAAAUCUUGAGAUCGUGCGUUCUACUCGCCCCCGGGAGAUUUUUUCCUCGAGCAA [C1G G6U G66U G73U]" value_type="nonsense suppression" qual=≤ readout_value=0.026
chain="CUCUCGGUAGCCAAGUUGGUUUAAGGCGCAAGACUUUAAUUUAUCACUACGAAAUCUUGUGAUCGGGCGUUCGACCCGCCCCCGGGAGAUUUUUUCCUCGAGCAA [A60U U76C]" value_type="nonsense suppression" qual== readout_value=1.05
chain="UUCUCGGUAGCCAGGUUGGUUUAAGGCGCAGGACUUUAAUUUAUCACUACGAAAUCUGGAGAUCGGGCGUUCGACUCGCCCCCGGGAGAUUUUUUCCUCGAGCAA [C1U A14G A31G U58G]" value_type="nonsense suppression" qual=≤ readout_value=0.026
chain="CUCCCGGUAGCCAAGUUGGUUUAAGGCGCAAGACUUUAAUUUAUCACUACGAAAUCUUGAGAUCGGGCGUUCGACUCUCCCCCGGGAGAUUUUUUCCUCGAGCAA [U4C G78U]" value_type="nonsense suppression" qual== readout_value=1.12
chain="CUCUCGGUAGCCAAGUUGGUUUAAGGCGCAAGACUUUAAUUUAUCACUACGAAAUCUUGAUAUCGGGCGUUCGACCCGCCCCCGGGAGAUUUUUUCCUCGAGCAA [G61U U76C]" value_type="nonsense suppression" qual== readout_value=0.911
chain="CUCUCGGUAGCCAAGUUGGGUUAAGGCGCAAGACUUUAAUUUAUCACUACGAAAUCUUGAGAGCGGGCGUUCGACUCGCCCCCGGGAGAUUUUUUCCUCGAGCAA [U20G U63G]" value_type="nonsense suppression" qual== readout_value=0.495
chain="CUCUCGGUAGCCAAGUUGAUUUAAGGCGCAAGACUUUAAUUUAUCACUACGAAAUCUUGAGAGCGGGCGUUCGACUCGCCCCCGGGAGAUUUUUUCCUCGAGCAA [G19A U63G]" value_type="nonsense suppression" qual== readout_value=0.143
chain="CUUUCGGUAGCUAAGUUGGUUUAAGGCGCAAGACUUUAAUUUAUCACUACGAAAUCUUGAGAUCGGGCGUUCGACUCGCCCGCGGGAGAUUUUUUCCUCGAGCAA [C3U C12U C82G]" value_type="nonsense suppression" qual=≤ readout_value=0.026
chain="CUCUCGGUAGCCAGGUUGGUUUAAGGCGCAAGGCUUUAAUUUAUCACUACGAAAUCUUGAGAUCGGGCCUUCGACUCGCCCCCGGGAGAUUUUUUCCUCGAGCAA [A14G A33G G69C]" value_type="nonsense suppression" qual=≤ readout_value=0.026
